Source of measurements: ChEMBL document CHEMBL3525904

Target: UniProt:Q06278
Sequence (Q06278 whole entry): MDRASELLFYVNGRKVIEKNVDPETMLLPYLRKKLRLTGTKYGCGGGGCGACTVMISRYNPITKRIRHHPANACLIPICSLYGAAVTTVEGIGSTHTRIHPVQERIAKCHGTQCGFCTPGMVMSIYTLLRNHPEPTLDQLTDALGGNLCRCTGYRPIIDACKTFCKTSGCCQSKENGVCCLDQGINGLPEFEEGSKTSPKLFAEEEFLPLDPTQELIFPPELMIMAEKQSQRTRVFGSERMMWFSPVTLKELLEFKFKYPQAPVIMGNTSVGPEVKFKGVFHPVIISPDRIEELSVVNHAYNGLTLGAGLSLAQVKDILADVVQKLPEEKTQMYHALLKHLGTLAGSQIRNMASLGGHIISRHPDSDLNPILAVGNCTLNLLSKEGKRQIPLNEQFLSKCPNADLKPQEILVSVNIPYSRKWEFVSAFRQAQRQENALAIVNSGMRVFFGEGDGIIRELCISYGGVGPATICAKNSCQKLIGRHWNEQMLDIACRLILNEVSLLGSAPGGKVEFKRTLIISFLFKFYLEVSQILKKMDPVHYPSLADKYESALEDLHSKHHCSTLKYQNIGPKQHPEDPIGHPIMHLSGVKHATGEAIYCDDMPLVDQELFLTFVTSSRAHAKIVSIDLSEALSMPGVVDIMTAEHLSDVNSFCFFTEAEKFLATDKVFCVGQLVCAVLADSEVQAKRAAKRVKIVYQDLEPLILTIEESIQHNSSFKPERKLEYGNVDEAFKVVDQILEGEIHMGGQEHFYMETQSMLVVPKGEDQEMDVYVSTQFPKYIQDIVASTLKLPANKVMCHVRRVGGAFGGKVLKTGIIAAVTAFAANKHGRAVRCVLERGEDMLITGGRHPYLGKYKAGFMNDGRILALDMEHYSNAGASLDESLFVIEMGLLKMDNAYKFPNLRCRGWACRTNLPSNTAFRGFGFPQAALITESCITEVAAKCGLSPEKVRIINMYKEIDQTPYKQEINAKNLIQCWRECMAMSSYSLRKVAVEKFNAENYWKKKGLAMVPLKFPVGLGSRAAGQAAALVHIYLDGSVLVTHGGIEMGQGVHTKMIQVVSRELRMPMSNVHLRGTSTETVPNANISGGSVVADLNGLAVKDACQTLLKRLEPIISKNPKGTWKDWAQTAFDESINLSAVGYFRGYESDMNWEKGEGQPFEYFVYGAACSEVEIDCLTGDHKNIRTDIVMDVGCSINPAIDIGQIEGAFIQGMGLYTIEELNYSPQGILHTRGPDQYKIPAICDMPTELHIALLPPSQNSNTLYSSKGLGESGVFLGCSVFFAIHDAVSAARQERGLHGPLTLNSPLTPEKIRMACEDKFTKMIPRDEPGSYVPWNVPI
Assay: Drug metabolism in human liver S9 fraction assessed as aldehyde oxidase-mediated 2-oxo-metabolite formation at 10 uM by spectrometry
Format: ADME, subcellular
Details: s9, 10 µM
metricName: Drug metabolism

Consider the following illustrative entries.
Input: Annotate the compound CCCCc1c(C(=O)NC(=N)N)cnn1-c1cccc2ncccc12 with its measured Drug metabolism.
Output: metabolite_detected

Input: Annotate the compound Cc1ccc2ncccc2c1-n1ncc(C(=O)NC(=N)N)c1C1CC1 with its measured Drug metabolism.
Output: metabolite_detected

Input: Annotate the compound N=C(N)NC(=O)c1cnn(-c2c(O)ccc3ncccc23)c1C1CC1 with its measured Drug metabolism.
Output: metabolite_detected

Input: Annotate the compound N=C(N)NC(=O)c1cnn(-c2cccc3[nH]cnc23)c1C1CC1 with its measured Drug metabolism.
Output: metabolite_detected

Input: Annotate the compound N=C(N)NC(=O)c1cnn(-c2cccc3[nH]ncc23)c1C1CC1 with its measured Drug metabolism.
Output: metabolite_not_detected

Next:
Input: Annotate the compound CCN(CC)C(=O)c1cnn(-c2cccc3ncccc23)c1C1CC1 with its measured Drug metabolism.
Output: metabolite_detected

Input: Annotate the compound Cc1c(C(=O)N=C(N)N)cnn1-c1cccc2ncccc12 with its measured Drug metabolism.
Output: metabolite_detected
